# target_entity: ERα (Homo sapiens)
# Sequence (P03372 whole entry): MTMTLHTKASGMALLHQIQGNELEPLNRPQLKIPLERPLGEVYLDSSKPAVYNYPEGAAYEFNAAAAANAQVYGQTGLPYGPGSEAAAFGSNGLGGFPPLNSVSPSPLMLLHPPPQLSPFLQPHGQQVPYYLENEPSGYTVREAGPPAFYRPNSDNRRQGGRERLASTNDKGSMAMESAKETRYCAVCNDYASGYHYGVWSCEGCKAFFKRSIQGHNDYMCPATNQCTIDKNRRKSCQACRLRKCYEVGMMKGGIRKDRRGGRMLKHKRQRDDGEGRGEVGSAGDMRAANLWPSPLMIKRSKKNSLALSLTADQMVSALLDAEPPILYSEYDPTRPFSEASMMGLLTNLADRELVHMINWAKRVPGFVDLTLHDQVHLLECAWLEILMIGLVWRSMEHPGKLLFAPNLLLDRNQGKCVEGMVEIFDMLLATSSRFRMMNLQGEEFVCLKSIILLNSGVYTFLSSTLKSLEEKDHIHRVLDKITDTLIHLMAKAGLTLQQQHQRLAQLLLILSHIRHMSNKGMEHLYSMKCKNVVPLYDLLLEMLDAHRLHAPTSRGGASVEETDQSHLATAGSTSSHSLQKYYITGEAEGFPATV
# assay_method_text: ERE-luciferase reporter assay
# Assay type: cell-based
# applied_conditions: MCF-7:ws8 cells, normalized to Ctrl (0%) and E2 1 nM (100%)
outcome_measure: Efficacy (% E2)
Please reply with the bare figure in % E2 and do not write the unit itself.

# count of solved cases: 8
| compound | Efficacy (% E2) |
| --- | --- |
| Oc1ccc2c(-c3ccc(F)cc3)c(Oc3ccc(F)cc3)sc2c1 [Compound 30c] | 100 |
| C#Cc1ccc(C(=O)c2sc3cc(O)ccc3c2-c2ccc(F)cc2)cc1 | 65 |
| O=C(c1ccc(C(F)(F)F)cc1)c1c(-c2ccc(Cl)cc2)sc2cc(O)ccc12 [Compound 14c] | 100 |
| Cc1ccc(C(=O)c2c(-c3ccc(O)cc3)sc3cc(O)ccc23)cc1 [Compound 14a] | 100 |
| N#Cc1ccc(C(=O)c2sc3cc(O)ccc3c2-c2ccc(F)cc2)cc1 [Compound 26b] | 100 |
| O=C(c1ccc(C(F)(F)F)cc1)c1c(-c2ccc(F)cc2)sc2cc(O)ccc12 [Compound 14b] | 100 |
| Oc1ccc2c(-c3ccc(F)cc3)c(Oc3ccc(F)c(F)c3)sc2c1 [Compound 30d] | 100 |
| Oc1ccc(Oc2sc3cc(O)ccc3c2-c2ccc(F)cc2)cc1 [Compound 30a] | 60 |

Now let's try a different one.
Would you please give the reported Efficacy (% E2) of O=C(c1ccc(C(F)(F)F)cc1)c1sc2cc(O)ccc2c1-c1ccc(F)cc1 [Compound 26a] with ERα (Homo sapiens)? 85
